# Tested on: HT-29
# Method Notes: Cytostatic activity against human HT-29 cells compound incubated for 6 hrs followed by compound wash out measured after 72 hrs by MTT assay
# Format: functional, cell-based
This listing pairs compounds with measured pIC50.
Entry type: numeric. Quantity: pIC50, the -log10 of concentration in molar units.

Smiles Entry	Value Measured
COc1cccc2c1C(=O)c1c(O)c3c(c(O)c1C2=O)C[C@@](O)(/C(C)=N/OCC(=O)NCCCC[C@H](NC(=O)[C@H](Cc1c[nH]c2ccccc12)NC(=O)[C@H](CC(=O)O)NC(=O)[C@H](Cc1cnc[nH]1)NC(=O)[C@H](CCCCNC(=O)C(C)C)NC(=O)[C@H](Cc1c[nH]c2ccccc12)NC(=O)[C@H](Cc1cnc[nH]1)NC(=O)[C@@H]1CCC(=O)N1)C(=O)N1CCC[C@H]1C(=O)NCC(N)=O)C[C@@H]3O[C@H]1C[C@H](N)[C@H](O)[C@H](C)O1	5.70

Which pIC50 is listed for `CCC(=O)NCCCC[C@H](NC(=O)[C@H](Cc1c[nH]c2ccccc12)NC(=O)[C@H](Cc1cnc[nH]1)NC(=O)[C@@H]1CCC(=O)N1)C(=O)N[C@@H](Cc1cnc[nH]1)C(=O)N[C@@H](CC(=O)O)C(=O)N[C@@H](Cc1c[nH]c2ccccc12)C(=O)N[C@@H](CCCCNC(=O)CO/N=C(\C)[C@]1(O)Cc2c(O)c3c(c(O)c2[C@@H](O[C@H]2C[C@H](N)[C@H](O)[C@H](C)O2)C1)C(=O)c1c(OC)cccc1C3=O)C(=O)N1CCC[C@H]1C(=O)NCC(N)=O` ? 4.76

Which pIC50 is listed for `COc1cccc2c1C(=O)c1c(O)c3c(c(O)c1C2=O)C[C@@](O)(/C(C)=N/OCC(=O)NCCCC[C@@H](NC(=O)[C@H](Cc1ccc(O)cc1)NC(=O)[C@H](CO)NC(=O)[C@H](Cc1c[nH]c2ccccc12)NC(=O)[C@H](Cc1cnc[nH]1)NC(=O)[C@@H]1CCC(=O)N1)C(=O)N[C@@H](CC(C)C)C(=O)N[C@@H](CCCNC(=N)N)C(=O)N1CCC[C@H]1C(=O)NCC(N)=O)C[C@@H]3O[C@H]1C[C@H](N)[C@H](O)[C@H](C)O1` ? 4.69

Which pIC50 is listed for `CCCCCC(=O)NCCCC[C@H](NC(=O)[C@H](Cc1c[nH]c2ccccc12)NC(=O)[C@H](Cc1cnc[nH]1)NC(=O)[C@@H]1CCC(=O)N1)C(=O)N[C@@H](Cc1cnc[nH]1)C(=O)N[C@@H](CC(=O)O)C(=O)N[C@@H](Cc1c[nH]c2ccccc12)C(=O)N[C@@H](CCCCNC(=O)CO/N=C(\C)[C@]1(O)Cc2c(O)c3c(c(O)c2[C@@H](O[C@H]2C[C@H](N)[C@H](O)[C@H](C)O2)C1)C(=O)c1c(OC)cccc1C3=O)C(=O)N1CCC[C@H]1C(=O)NCC(N)=O` ? 4.70

---

# System: HT-29
# Method Notes: Cellular uptake in human HT-29 cells after 6 hrs by flow cytometer
# Assay type: ADME, cell-based
# Experimental Setup: ht-29, 6 h
Measured Endpoint: Drug uptake

Smiles Entry	Value Measured
COc1cccc2c1C(=O)c1c(O)c3c(c(O)c1C2=O)C[C@@](O)(/C(C)=N/OCC(=O)NCCCC[C@H](NC(=O)[C@H](Cc1c[nH]c2ccccc12)NC(=O)[C@H](CC(=O)O)NC(=O)[C@H](Cc1cnc[nH]1)NC(=O)[C@H](CCCCN)NC(=O)[C@H](Cc1c[nH]c2ccccc12)NC(=O)[C@H](Cc1cnc[nH]1)NC(=O)[C@@H]1CCC(=O)N1)C(=O)N1CCC[C@H]1C(=O)NCC(N)=O)C[C@@H]3O[C@H]1C[C@H](N)[C@H](O)[C@H](C)O1	Dose-dependent effect
C/C=C/C(=O)NCCCC[C@H](NC(=O)[C@H](Cc1c[nH]c2ccccc12)NC(=O)[C@H](Cc1cnc[nH]1)NC(=O)[C@@H]1CCC(=O)N1)C(=O)N[C@@H](Cc1cnc[nH]1)C(=O)N[C@@H](CC(=O)O)C(=O)N[C@@H](Cc1c[nH]c2ccccc12)C(=O)N[C@@H](CCCCNC(=O)CO/N=C(\C)[C@]1(O)Cc2c(O)c3c(c(O)c2[C@@H](O[C@H]2C[C@H](N)[C@H](O)[C@H](C)O2)C1)C(=O)c1c(OC)cccc1C3=O)C(=O)N1CCC[C@H]1C(=O)NCC(N)=O	Dose-dependent effect
COc1cccc2c1C(=O)c1c(O)c3c(c(O)c1C2=O)C[C@@](O)(/C(C)=N/OCC(=O)NCCCC[C@@H](NC(=O)[C@H](Cc1ccc(O)cc1)NC(=O)[C@H](CO)NC(=O)[C@H](Cc1c[nH]c2ccccc12)NC(=O)[C@H](Cc1cnc[nH]1)NC(=O)[C@@H]1CCC(=O)N1)C(=O)N[C@@H](CC(C)C)C(=O)N[C@@H](CCCNC(=N)N)C(=O)N1CCC[C@H]1C(=O)NCC(N)=O)C[C@@H]3O[C@H]1C[C@H](N)[C@H](O)[C@H](C)O1	Dose-dependent effect
